src = patent US20210380703A1

- test_system: T1, biotinylated goat anti-human kappa light chain
- T1 construct: Positive control of the ELISA
- assay_comment: ELISA, positive control; also: test concentration or dose not given here
outcome_measure: optical density (OD)
Kindly provide the numeric value in OD only, without the unit symbol.

1) 374_G12 (antibody, V domains shown, VH and VL only) VH: EVQLLESGGGLVQPGGSLRLSCAASGFTFDDYGMNWVRQAPGKGLEWVSSINYNGGYKSYADSVKGRFTISRDNSKNTLYLQMNSLRAEDTAVYYCARSATWHDTHLDYWGQGTLVTVSS VL: DIQMTQSPSSLSASVGDRVTITCRASQSILTYVNWYQQKPGKAPKLVIYAATSLASGVPSRFSGSGSGTDFTLTISSLQPEDFATYYCQQSYNSPLTFGGGTKVEIK	3.15
2) 368_G07 (antibody, V domains shown, VH and VL only) VH: EVQLLESGGGLVQPGGSLRLSCAASGFTFSSYSMHWVRQAPGKGLEWVSSINYNGGYTSYADSVKGRFTISRDNSKNTLYLQMNSLRAEDTAVYYCARSATWHDTHLDYWGQGTLVTVSS VL: DIQMTQSPSSLSASVGDRVTITCRASQSIVSYVNWYQQKPGKAPKLVIYAATSRASGVPSRFSGSGSGTDFTLTISSLQPEDFATYYCQQSYDTPLTFGGGTKVEIK	3.16

Turning now to a further record.
Field request: optical density | item: 376_C07 (antibody, V domains shown, VH and VL only) VH: EVQLLESGGGLVQPGGSLRLSCAASGFTFSSYSMNWVRQAPGKGLEWVSGINYNSGYKGYADSVKGRFTISRDNSKNTLYLQMNSLRAEDTAVYYCARSATWHDTHLDYWGQGTLVTVSS VL: DIQMTQSPSSLSASVGDRVTITCRASQSILSYVNWYQQKPGKAPKLLIYAATSRHSGVPSRFSGSGSGTDFTLTISSLQPEDFATYYCQQSYDLPLTFGGGTKVEIK
3.42
